Examples of molecules with documented log10 of EC50 at 1 h follow.
- measurement-protocol: Hemolytic activity in human RBC measured after 1 hr by microplate reader method
- Type: toxicity, cell-based, Erythrocyte
- measurement-parameters: human, human red blood cells (erythrocytes)
Give log10 of EC50 at 1 h, with EC50 at 1 h taken in µg/mL.

Some entries whose results are on file:
[[record]]
molecule = "CC(C)(C)c1ccc(CC2(Cc3cc(Br)cc(Br)c3)C(=O)N(CCCN)C(=O)N(CCCN)C2=O)cc1.O=C(O)C(F)(F)F.O=C(O)C(F)(F)F"
experimental_value = 1.67

[[record]]
molecule = "N=C(N)NCCCCN1C(=O)N(CCCCNC(=N)N)C(=O)C(Cc2cc(Br)cc(Br)c2)(Cc2ccc3ccccc3n2)C1=O.O=C(O)C(F)(F)F.O=C(O)C(F)(F)F (stereo not given)"
experimental_value = 2.65

[[record]]
molecule = "N=C(N)NCCCCN1C(=O)N(CCCCNC(=N)N)C(=O)C(Cc2cc(Br)c(Br)cc2Br)(Cc2cc(Br)c(Br)cc2Br)C1=O.O=C(O)C(F)(F)F.O=C(O)C(F)(F)F"
experimental_value = 1.51


Challenge: Return reported log10 of EC50 at 1 h; argument: N=C(N)N[C@H]1C[C@@H](N2C(=O)N([C@H]3C[C@@H](NC(=N)N)C3)C(=O)C(Cc3cc(Br)cc(Br)c3)(Cc3cc(Br)cc(Br)c3)C2=O)C1.O=C(O)C(F)(F)F.O=C(O)C(F)(F)F
Response given: 1.88

Challenge: Quick one: log10 of EC50 at 1 h for CNCCCCN1C(=O)N(CCCCNC)C(=O)C(Cc2cc(Br)cc(Br)c2)(Cc2cc(Br)cc(Br)c2)C1=O.O=C(O)C(F)(F)F.O=C(O)C(F)(F)F ?
Response given: 1.86

Challenge: Please report the recorded log10 of EC50 at 1 h for NCCCN1C(=O)N(CCCN)C(=O)C(Cc2cc(C(F)(F)F)cc(C(F)(F)F)c2)(Cc2cc(C(F)(F)F)cc(C(F)(F)F)c2)C1=O.O=C(O)C(F)(F)F.O=C(O)C(F)(F)F .
Response given: 2.25

Challenge: Need log10 of EC50 at 1 h of CCCCCCC1(Cc2cc(Br)cc(Br)c2)C(=O)N(CCCCN)C(=O)N(CCCCN)C1=O.O=C(O)C(F)(F)F.O=C(O)C(F)(F)F , thanks.
Response given: 2.16

Challenge: # query: log10 of EC50 at 1 h of entry N=C(N)NCCCCN1C(=O)N(CCCCNC(=N)N)C(=O)C(Cc2c(Br)cc(Br)cc2Br)(Cc2c(Br)cc(Br)cc2Br)C1=O.O=C(O)C(F)(F)F.O=C(O)C(F)(F)F
Response given: 1.48

Challenge: Any idea what log10 of EC50 at 1 h was measured for CC(C)(C)c1ccc(CC2(Cc3cc(Br)cc(Br)c3)C(=O)N(CCCNC(=N)N)C(=O)N(CCCNC(=N)N)C2=O)cc1.O=C(O)C(F)(F)F.O=C(O)C(F)(F)F (stereo not given) ?
Response given: 2.23

Challenge: Give its log10 of EC50 at 1 h value. Item: N=C(N)NCCN1C(=O)N(CCNC(=N)N)C(=O)C(Cc2cc(Br)cc(Br)c2)(Cc2cc(Br)cc(Br)c2)C1=O.O=C(O)C(F)(F)F.O=C(O)C(F)(F)F
Response given: 2.21

Challenge: I'd like to know its log10 of EC50 at 1 h. The molecule in question is NCCCCN1C(=O)N(CCCCN)C(=O)C(Cc2cc(Br)c(Br)cc2Br)(Cc2cc(Br)c(Br)cc2Br)C1=O.O=C(O)C(F)(F)F.O=C(O)C(F)(F)F
Response given: 1.43
